This listing pairs variants with measured abundance fitness.
B1: Protein piccolo, residues 1058 to 1114; numbered along this chain, Q9Y6V0 (parent)
chain: TCPLCKTELNIGSKDPPNFNTCTECKNQVCNLCGFNPTPHLTEIQEWLCLNCQTQRA

Variants of: B1
Assay: abundance fitness (aPCA) (normalised: wild type 0, dead -1); higher = more abundant; growth selection in yeast, the domain comes from the species named
Settings: Homo sapiens
observation-type: abundance fitness

>>> df
    sequence_variant  obs_value
 0              F35Y      0.022
 1               T1E     -0.142
 2              L50S      0.141
 3              N20E     -0.012
 4              K14G      0.021
 5              E46D     -0.415
 6              S13L      -0.23
 7              K14D      0.003
 8              Q53Y      -0.23
 9              N31Q      0.014
10               C2F      -1.11
11               L4M      0.075
12              L50A      0.129
13              P39Q      0.099
14              C25I     -0.669
15              E46C     -0.292
16              W47L      0.056
17               C5M     -0.927
18              F19W     -0.083
19              C33M     -0.812
20              D15M     -0.053
21              T23R     -0.016
22              L50Q       0.15
23              G34V     -0.037
24               P3T     -0.016
25              P39V      0.092
26              L50F      -0.25
27              C22S     -0.611
28               L9G     -0.047
29               C5S      -0.68
30              Q53T     -0.067
31              P37S      0.016
32               P3G     -0.137
33              I11Y      0.086
34               C5G     -0.685
35               P3Y     -0.142
36              C33W      -1.01
37              C22I      -1.04
38               C2E     -0.557

The reported measurements were obtained from the Human Domainome abundance scans (Beltran et al. 2025).
